Literature survey of IC50 (system: Activin receptor type-1-like (Homo sapiens, UniProt P37023)).
Use nM as the unit, but write only the number.

Lookup: IC50 / Activin receptor type-1-like (Homo sapiens, UniProt P37023) / CC(C)N1C[C@H]2C[C@@]2(c2ccc(-c3cnc(N)c(C(=O)N[C@H]4CC[C@H](O)CC4)c3)cc2)C1
93

Query for Activin receptor type-1-like (Homo sapiens, UniProt P37023): what IC50 does the record show for O=c1[nH]cc(-c2ccnc3[nH]ccc23)cc1-c1nc2cc(N3CCCCC3)ccc2[nH]1 ?
45

Request - read-out IC50 | tested on Activin receptor type-1-like (Homo sapiens, UniProt P37023) | molecule CC(C)n1cc(-c2cncc(-c3ccc4c(c3)C(F)(F)C(=O)N4C)c2)ccc1=O
5600

What measured IC50 is associated with CC(C)CCn1cc(-c2cncc(-c3ccc4c(c3)CC(=O)N4C)c2)ccc1=O on Activin receptor type-1-like (Homo sapiens, UniProt P37023)?
7000

What is its IC50 for Activin receptor type-1-like (Homo sapiens, UniProt P37023)? Entry: CC(C)n1cc(-c2cncc(-c3ccc4c(c3)CS(=O)(=O)N4C)c2)ccc1=O
210

# query: IC50 | item O=c1[nH]cc(-c2ccnc3[nH]ccc23)cc1-c1nc2cc(N3CCCNCC3)ccc2[nH]1 | system: Activin receptor type-1-like (Homo sapiens, UniProt P37023)
1

Write down the reported IC50 of Nc1ncc(-c2ccc([C@]34C[C@H]3CN(C3COC3)C4)cc2)cc1C(=O)N[C@H]1CC[C@H](O)CC1 , test system: Activin receptor type-1-like (Homo sapiens, UniProt P37023).
230

* * *

IC50 values for Activin receptor type-1-like (Homo sapiens) compiled from several publications are listed below.
Report the value in µM with no unit label.

Please provide the recorded IC50 for Nc1ncc(-c2ccc([C@]34C[C@H]3CN(C3CCOCC3)C4)cc2)cc1C(=O)NC12CCC(O)(CC1)CC2 , tested on Activin receptor type-1-like (Homo sapiens).
0.54

Recall the recorded IC50 for Nc1ncc(-c2ccc([C@@]34C[C@@H]3CN(CCN3CCOCC3)C4)cc2)cc1C(=O)N[C@H]1CC[C@H](O)CC1 with Activin receptor type-1-like (Homo sapiens) and state it.
0.089

Give IC50 (Activin receptor type-1-like (Homo sapiens)) of the following compound: CN1C(=O)Cc2cc(-c3cncc(-c4ccc(=O)n(CCC(F)(F)F)c4)c3)ccc21
8.7

What measured IC50 is associated with Nc1ncc(-c2ccc([C@@]34C[C@@H]3CN(C3CCN(CC(F)(F)F)CC3)C4)cc2)cc1C(=O)N[C@H]1CC[C@H](O)CC1 on Activin receptor type-1-like (Homo sapiens)?
0.19

What reported IC50 corresponds to CC(C)N1C[C@H]2C[C@@]2(c2ccc(-c3cnc(N)c(C(=O)NC45CC(CO)(C4)C5)c3)cc2)C1 on Activin receptor type-1-like (Homo sapiens)?
0.295

For Activin receptor type-1-like (Homo sapiens), provide IC50 of C[C@H](c1ccc(-c2cnc(N)c(C(=O)N[C@]3(C)CC[C@@H](O)CC3)c2)cc1)N1CC2(COC2)C1 please.
2.3

GET /values?readout=IC50&system=Activin receptor type-1-like (Homo sapiens)&item= Nc1ncc(-c2ccc(C(=O)N3CCOCC3)cc2)cc1C(=O)NC1CCCCC1
1.1

Requested read-out IC50, target or system Activin receptor type-1-like (Homo sapiens), entry CCN(CC)CCNC(=O)c1ccc2nc(-c3cc(-c4ccncc4)c[nH]c3=O)[nH]c2c1
3.1

Kindly state the measured IC50 obtained for COCn1cc(-c2cncc(-c3ccc4c(c3)CC(=O)N4C)c2)ccc1=O with Activin receptor type-1-like (Homo sapiens).
5.1

Value wanted: IC50 (Activin receptor type-1-like (Homo sapiens)) of entry CN1C(=O)Cc2cc(-c3cncc(-c4ccc(=O)n(C5CCCC5)c4)c3)ccc21
1.5

Lookup: IC50 / Activin receptor type-1-like (Homo sapiens) / O=c1[nH]cc(-c2ccnc3ccccc23)cc1-c1nc2ccccc2[nH]1
1.4

Write down the reported IC50 of CC(C)n1cc(-c2cncc(-c3cnc4c(c3)CCC(=O)N4C)c2)ccc1=O , test system: Activin receptor type-1-like (Homo sapiens).
1.7

Query IC50 on Activin receptor type-1-like (Homo sapiens) for O=c1[nH]cc(-c2ccnc3[nH]ccc23)cc1-c1nc2cc(N3CCC(O)CC3)ccc2[nH]1
0.0037

Under Activin receptor type-1-like (Homo sapiens): IC50 value of Nc1ncc(-c2cccc(C(=O)N3CCN(CCO)CC3)c2)cc1C(=O)NC1CCCCC1 ?
20.2
